koff values by entry
- target system: T1, Human Angiopoietin-2 full-length (hAng2) (human, UniProt O15123 19-496)
- T1 construct: The cell assays used full-length hAng2 from R&D Systems; also called human Ang2; A2
- T1 sequence: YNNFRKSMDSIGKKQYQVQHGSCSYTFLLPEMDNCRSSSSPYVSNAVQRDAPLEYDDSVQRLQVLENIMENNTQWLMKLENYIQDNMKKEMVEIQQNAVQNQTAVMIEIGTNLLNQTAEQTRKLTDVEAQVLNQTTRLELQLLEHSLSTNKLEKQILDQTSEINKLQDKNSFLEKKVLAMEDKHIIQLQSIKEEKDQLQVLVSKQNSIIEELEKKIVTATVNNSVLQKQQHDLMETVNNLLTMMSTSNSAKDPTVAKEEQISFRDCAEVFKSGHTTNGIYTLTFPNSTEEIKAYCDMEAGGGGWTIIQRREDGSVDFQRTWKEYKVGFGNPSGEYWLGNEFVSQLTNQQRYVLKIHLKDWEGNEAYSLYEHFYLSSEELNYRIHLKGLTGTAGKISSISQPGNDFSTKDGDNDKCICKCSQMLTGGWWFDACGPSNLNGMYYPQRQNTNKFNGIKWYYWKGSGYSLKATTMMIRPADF
- assay text: BLI (Octet), antibody fixed on AR2G sensor, hAng2 3.125-50 nM in solution, 1:1 global fit
value kind: koff

* humanized anti-Ang2 antibody 2C8H13 (antibody, V domains shown, Full-length human IgG1) VH: QVQLVQSGAEVKKPGASVKVSCKASGYTFTSYWMHWVRQAPGQGLEWMGMIDPSDSETRLNQKFKDRVTMTRDTSTSTVYMELSSLRSEDTAVYYCARRFYYGSDWYFDVWGQGTLVTVSS VL: DIQLTQSPSFLSASVGDRVSITCKASQDVGTAVAWYQQKPGKAPKLLIYWASTRHTGVPDRFSGSGSGTEFTLTISSLQPEDFADYFCQQYSSYPLTFGQGTKVEIK | 2.77e-05 s⁻¹
* humanized anti-Ang2 antibody 2C8H23 (antibody, V domains shown, Full-length human IgG1) VH: QVQLVQSGAEVKKPGASVKVSCKASGYSFTSYWMHWVRQAPGQGLEWIGMIDPSDSETRLNQKFKDRVTMTRDTSTSTVYMELSSLRSEDTAVYYCARRFYYGSDWYFDVWGQGTLVTVSS VL: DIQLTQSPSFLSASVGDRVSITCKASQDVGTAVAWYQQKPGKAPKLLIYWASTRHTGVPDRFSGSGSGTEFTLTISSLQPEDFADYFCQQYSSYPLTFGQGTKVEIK | 2.28e-05 s⁻¹
* humanized anti-Ang2 antibody 2C8H11 (antibody, V domains shown, Full-length human IgG1) VH: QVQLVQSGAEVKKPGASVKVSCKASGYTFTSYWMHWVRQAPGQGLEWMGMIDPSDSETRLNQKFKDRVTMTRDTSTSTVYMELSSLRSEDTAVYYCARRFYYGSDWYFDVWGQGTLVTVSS VL: DIQLTQSPSFLSASVGDRVTITCKASQDVGTAVAWYQQKPGKAPKLLIYWASTRHTGVPSRFSGSGSGTEFTLTISSLQPEDFATYYCQQYSSYPLTFGQGTKVEIK | 1.4e-05 s⁻¹
* humanized anti-Ang2 antibody 2C8H51 (antibody, V domains shown, Full-length human IgG1) VH: QVQLVQSGAEVKKPGASVKVSCKASGYSFTSYWMHWVKQAPGQGLEWIGMIDPSDSETRLNQKFKDKASLTVDTSTSTVYMELSSLRSEDTAVYYCARRFYYGSDWYFDVWGQGTLVTVSS VL: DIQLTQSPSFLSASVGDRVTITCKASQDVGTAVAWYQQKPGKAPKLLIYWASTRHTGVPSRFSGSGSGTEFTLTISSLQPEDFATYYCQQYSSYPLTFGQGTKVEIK | 9.61e-06 s⁻¹
* humanized anti-Ang2 antibody 4B9H31 (antibody, V domains shown, Full-length human IgG1) VH: QVQLVESGGGLVKPGGSLRLSCAASGFTFSDYYMYWVRQAPGKGLEWVATISVGGSFTYYPDSVKGRFTISRDNAKNSLYLQMNSLRAEDTAVYYCARDWGLRPWFVYWGQGTLVTVSS VL: DIQMTQSPSSLSASVGDRVTITCKASQDVSTAVAWYQQKPGKAPKLLIYWASTRHTGVPSRFSGSGSGTDFTLTISSLQPEDFATYYCQQHYSTPPTFGQGTKVEIK | 1.56e-05 s⁻¹
